# binding signal per entry
assay.target: GST-VND7 NAC domain (Arabidopsis thaliana, UniProt Q9C8W9 9-158)
Sequence: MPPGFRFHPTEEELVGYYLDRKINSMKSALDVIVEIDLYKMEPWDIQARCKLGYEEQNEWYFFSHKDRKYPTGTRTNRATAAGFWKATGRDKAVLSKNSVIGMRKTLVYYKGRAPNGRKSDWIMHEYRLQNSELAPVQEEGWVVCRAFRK
assay.name: universal protein binding microarray (PBM); transcription factors of Arabidopsis thaliana; high values mean tight binding
measurement.setup: protein: recombinant; tags: GST; chain copies: 2; dsDNA, one strand shown
Quick note: give the figure in E-score, leave out the unit.

1) AATTGCGT: 0.418
2) TGAAGTAA: 0.132
3) GACGTAAA: 0.204

If you can, please state the reported binding signal value of `GTGGAGTA` .
0.15

Could you do the same for `CACGTTTC` , please?
0.298

Could you do the same for `GCACGTAA` , please?
0.454

Could you do the same for `ATTGAGTA` , please?
0.258

Could you do the same for `GACGTCAA` , please?
0.0526

Could you do the same for `AAAAGTCA` , please?
0.122

Could you do the same for `AAGCAATC` , please?
0.289

Could you do the same for `AAACCCTC` , please?
0.1

Could you do the same for `TCACGGCA` , please?
0.456

Could you do the same for `ATGACGTA` , please?
0.386

Could you do the same for `ACAAGTTA` , please?
0.146
